target: LAP2, Q96RT1; assay: holdup assay; parameters: key: below the threshold = too weak to quantify, mostly under pKd 3.1 to 4; details: plain residues with an end cap or a label only (N-terminal biotin on a linker: ado-ado)
Sequence (Q96RT1 other isoform, or with tags, fused parts or gaps): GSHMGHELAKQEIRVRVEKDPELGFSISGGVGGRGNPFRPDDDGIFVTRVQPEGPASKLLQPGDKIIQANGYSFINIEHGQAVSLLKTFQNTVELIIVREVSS
assayEndpoint: pKd
Keep the answer to the number alone.

Completed entries (count: 2):
| binder | assayEndpoint | resultValue |
| --- | --- | --- |
| QRPYRRGSEI [KCNJ18, B7U540] | pKd | 4.09 |
| QSGLYESEEL [MYOT, Q9UBF9] | pKd | 3.9 |

What does the data say about its pKd? Entry: TNSRHGETTV [FZD2, Q14332] 4.02

What does the data say about its pKd? Entry: KRPEMTSSSV [MUC3B, MUC3A, Q02505;Q9H195] 1.89

What does the data say about its pKd? Entry: RDPPAEWTRV [PTPN18, Q99952] 4.02

What does the data say about its pKd? Entry: DPAESMESLV [PTPRG, P23470] 3.96

What does the data say about its pKd? Entry: DDASLPVSDV [PLEKHA1, Q9HB21] 3.73

What does the data say about its pKd? Entry: PYSESDDDWC [CACNA1A, O00555] 3.87

What does the data say about its pKd? Entry: TRKRSGEAAV [PFKM, P08237] 3.48

What does the data say about its pKd? Entry: MQHQRTHTRV [ZSCAN30, Q86W11] 3.89
